METHOD: Half life in Sprague-Dawley rat at 0.53 mg/kg, iv or 1.06 mg/kg, po measured upto 24 hrs by LC-MS/MS analysis
Assay type: ADME, organism-based
CONDITION SET: in vivo
ENDPOINT: half-life (h)
Respond numerically; units are h and should not be typed.

Bench note: what half-life did COC(=O)Nc1ccc2c(c1)N[C@@H](C(=O)OC)CCCC[C@H](NC(=O)/C=C/c1cc(Cl)ccc1-n1cnnn1)c1nc-2c[nH]1 show?
1.8

---

METHOD: Clearance in Sprague-Dawley rat at 1.13 mg/kg, iv or 2.27 mg/kg, po measured upto 24 hrs by LC-MS/MS analysis
Type: ADME, organism-based
CONDITION SET: in vivo
ENDPOINT: clearance (mL/min/kg)
State just the number; it will be interpreted in mL/min/kg.

State the recorded clearance for this entry: COC(=O)Nc1ccc2c(c1)NC(=O)CCCC[C@H](NC(=O)/C=C/c1cc(Cl)ccc1-n1cnnn1)c1nc-2c[nH]1
10

---

METHOD: Clearance in Sprague-Dawley rat at 0.53 mg/kg, iv or 1.06 mg/kg, po measured upto 24 hrs by LC-MS/MS analysis
Assay type: ADME, organism-based
CONDITION SET: in vivo
ENDPOINT: clearance (mL/min/kg)
Use mL/min/kg as the unit, but write only the number.

Bench note: what clearance did COC(=O)Nc1ccc2c(c1)N[C@@H](C(=O)OC)CCCC[C@H](NC(=O)/C=C/c1cc(Cl)ccc1-n1cnnn1)c1nc-2c[nH]1 show?
3

---

SYSTEM: Coagulation factor XI (Homo sapiens, UniProt P03951)
Sequence (P03951 19-387 limits assumed): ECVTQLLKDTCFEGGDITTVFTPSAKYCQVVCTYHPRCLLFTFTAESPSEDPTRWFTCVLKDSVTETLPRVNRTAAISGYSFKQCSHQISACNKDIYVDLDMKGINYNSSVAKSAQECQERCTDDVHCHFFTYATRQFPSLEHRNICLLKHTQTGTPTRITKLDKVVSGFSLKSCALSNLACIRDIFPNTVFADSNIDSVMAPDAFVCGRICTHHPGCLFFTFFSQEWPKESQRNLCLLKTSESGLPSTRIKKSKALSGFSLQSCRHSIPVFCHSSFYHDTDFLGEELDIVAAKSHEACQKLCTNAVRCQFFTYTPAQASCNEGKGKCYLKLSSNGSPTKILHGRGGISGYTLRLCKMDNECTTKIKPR
Sequence (P03951 388-625 limits assumed): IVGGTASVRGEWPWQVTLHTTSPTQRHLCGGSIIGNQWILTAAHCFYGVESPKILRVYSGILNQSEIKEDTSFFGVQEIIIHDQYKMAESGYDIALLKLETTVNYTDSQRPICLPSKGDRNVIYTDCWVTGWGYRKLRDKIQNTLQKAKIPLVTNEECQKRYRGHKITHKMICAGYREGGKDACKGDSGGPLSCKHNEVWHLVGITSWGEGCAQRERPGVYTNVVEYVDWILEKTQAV
METHOD: Inhibition of recombinant human activated coagulation factor XI using pyro-Glu-Pro-Arg-pNA as substrate by spectrophotometry
Binarize Ki at 4 nM; below is class 1, at or above is class 0.

Some solved cases for reference:
Please state whether Ki is below 4 nM for COC(=O)Nc1ccc2c(c1)N[C@@H](C(=O)OC)CCCC[C@H](NC(=O)/C=C/c1cc(Cl)ccc1-n1cnnn1)c1nc-2c[nH]1
class 1

And for O=C(/C=C/c1cc(Cl)ccc1-n1cnnn1)N[C@H]1CCCCC(=O)Nc2ccccc2-c2c[nH]c1n2 ?
class 0

Also COC(=O)Nc1ccc2c(c1)N[C@@H](C)CCCC[C@H](NC(=O)/C=C/c1cc(Cl)ccc1-n1cnnn1)c1nc-2c[nH]1 ?
class 0

Thanks! And COC(=O)Nc1ccc2c(c1)N[C@@H](C(=O)O)CCCC[C@H](NC(=O)/C=C/c1cc(Cl)ccc1-n1cnnn1)c1nc-2c[nH]1 ?
class 1

// next record COC(=O)Nc1ccc2c(c1)C[C@@H](C(=O)OC)CCCC[C@H](NC(=O)/C=C/c1cc(Cl)ccc1-n1cnnn1)c1nc-2c[nH]1
class 0

Now consider COC(=O)C[C@H]1CCCC[C@H](NC(=O)/C=C/c2cc(Cl)ccc2-n2cnnn2)c2nc(c[nH]2)-c2ccc(NC(=O)OC)cc2N1 .
class 1

Others:
Does this molecule meet the criterion Ki < 4 nM? COC(=O)Nc1ccc2c(c1)N[C@@H](C(F)(F)F)CC/C=C/C[C@H](NC(=O)/C=C/c1cc(Cl)ccc1-n1cnnn1)c1nc-2c[nH]1
class 0

What do we get for COC(=O)Nc1ccc2c(c1)N[C@@H](C(F)F)CCCC[C@H](NC(=O)/C=C/c1cc(Cl)ccc1-n1cnnn1)c1nc-2c[nH]1 ?
class 1

Follow-up entry: COC(=O)Nc1ccc2c(c1)N[C@@H](C(=O)O)CCCC[C@H](NC(=O)/C=C/c1cc(Cl)ccc1-n1cnnn1)c1cc-2ccn1
class 1

Item: CCOC(=O)[C@H]1CCCC[C@H](NC(=O)/C=C/c2cc(Cl)ccc2-n2cnnn2)c2nc(c[nH]2)-c2ccc(NC(=O)OC)cc2N1
class 1

---

METHOD: Oral bioavailability in Sprague-Dawley rat at 1.44 mg/kg measured upto 24 hrs by LC-MS/MS analysis
Format: ADME, organism-based
CONDITION SET: in vivo
ENDPOINT: bioavailability (%)
// return numeric value only (unit: %, not printed)

Looking for the measured bioavailability of COC(=O)Nc1ccc2c(c1)N[C@@H](C(F)(F)F)CCCC[C@H](NC(=O)/C=C/c1cc(Cl)ccc1-n1cnnn1)c1nc-2c[nH]1 , can you help?
9

---

SYSTEM: Coagulation factor XI (Homo sapiens)
METHOD: Inhibition of recombinant human activated coagulation factor XI using pyro-Glu-Pro-Arg-pNA as substrate by spectrophotometry
ENDPOINT: Ki (nM)
Please reply with the bare figure in nM and do not write the unit itself.

Item COC(=O)c1ccc2c(c1)-c1c[nH]c(n1)[C@@H](NC(=O)/C=C/c1cc(Cl)ccc1-n1cnnn1)C/C=C/CCC(=O)N2 has what recorded Ki?
245

Similarly, COC(=O)Nc1ccc2c(c1)N[C@@H](C(=O)OC)CCCC[C@H](NC(=O)/C=C/c1cc(Cl)ccc1-n1cnnn1)c1cc-2ccn1 ?
3.4

Could you do the same for O=C(/C=C/c1cc(Cl)ccc1-n1cnnn1)N[C@H]1C/C=C/CCC(=O)Nc2ccc(C(=O)O)cc2-c2c[nH]c1n2 , please?
3.6

Now the same for COC(=O)Nc1ccc2c(c1)N[C@@H](C(F)(F)F)CCCC[C@H](NC(=O)/C=C/c1cc(Cl)ccc1-n1cnnn1)c1cc-2ccn1
16

Note, next up: COC(=O)Nc1ccc2c(c1)NCCCCC[C@H](NC(=O)/C=C/c1cc(Cl)ccc1-n1cnnn1)c1nc-2c[nH]1
16

Continuing:
Item under review: O=C(/C=C/c1cc(Cl)ccc1-n1cnnn1)N[C@H]1C/C=C/CCC(=O)Nc2cc(F)ccc2-c2c[nH]c1n2 . Reported Ki?
12
